compounds and their reported IC50
experimental system: recombinant human FGFR2 cytoplasmic domain (amino acids 403-822) (Homo sapiens (Human))
Sequence (P21802 402-821): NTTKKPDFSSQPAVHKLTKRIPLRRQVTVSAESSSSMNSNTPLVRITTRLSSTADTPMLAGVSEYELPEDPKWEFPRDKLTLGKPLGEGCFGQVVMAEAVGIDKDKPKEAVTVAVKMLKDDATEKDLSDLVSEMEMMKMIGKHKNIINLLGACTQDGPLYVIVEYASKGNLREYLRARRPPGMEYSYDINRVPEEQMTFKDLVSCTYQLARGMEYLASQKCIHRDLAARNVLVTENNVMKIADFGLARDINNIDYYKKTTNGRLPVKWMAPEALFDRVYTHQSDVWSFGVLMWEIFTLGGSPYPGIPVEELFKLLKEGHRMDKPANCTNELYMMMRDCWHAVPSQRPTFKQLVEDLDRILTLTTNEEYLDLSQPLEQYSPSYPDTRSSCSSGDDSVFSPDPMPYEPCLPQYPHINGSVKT
assay overview: FGFR2 enzyme activity assay (LanthaScreen TR-FRET)
condition summary: 15 μM ATP, 20 min incubation at 22° C., average of multiple determinations if made, read-out: FGFR2 Enz FRET IC50
reported endpoint: IC50 (nM)

• C=CC(=O)N1CC(F)(C(=O)N2CCC(n3ncc(-c4cc(OC)c5c(C#N)cnn5c4)c3C)CC2)C1 = 13
• C=CS(=O)(=O)Nc1cccc(C(=O)N2CCC(n3cc(-c4cc(OC)c5c(C#N)cnn5c4)cn3)CC2)c1 = 5
• C=CC(=O)N1CC(OC)(C(=O)N2CCC(n3nc(C)c(-c4cc(OC)c5c(C#N)cnn5c4)c3C)CC2)C1 = 324
• C=CC(=O)N1CC[C@@H](C(=O)N2CCN(c3ccc(-c4cc(OC)c5c(C#N)cnn5c4)cn3)CC2)C1 = 5
• C=CC(=O)N[C@H]1C[C@H](C(=O)N2CCC(n3cc(-c4cc(OC)c5c(C#N)cnn5c4)cn3)CC2)C1 = 9
• C=CC(=O)N(C)c1ccc(CN2CCC(n3cc(-c4cc(OC)c5c(C#N)cnn5c4)cn3)CC2)cc1 = 6
• C=CC(=O)N1CCC2(CC1)CC(C(=O)N1CCC(n3cc(-c4cc(OC)c5c(C#N)cnn5c4)cn3)CC1)C2 = 3
• C=CC(=O)N1CC(F)(C(=O)N2CCC(n3cc(-c4cc(OC)c5c(C#N)cnn5c4)cn3)CC2)C1 = 7
• COc1cc(-c2nn(C3CCN(C(=O)C4(F)CN(C(=O)/C=C/CN(C)C)C4)CC3)nc2C)cn2ncc(C#N)c12 = 1170
• COc1cc(-c2cnn(C3CCN(C(=O)C4CN(C(=O)/C=C/CN(C)C)C4)CC3)c2)cn2ncc(Cl)c12 = 6
• C=CS(=O)(=O)N1CCC(C(=O)N2CCC(n3cc(-c4cc(OC)c5c(C#N)cnn5c4)cn3)CC2)CC1 = 8
• C=CC(=O)N1CC(C(=O)N2CC[C@H](n3cc(-c4cc(OC)c5c(C#N)cnn5c4)cn3)C2)C1 = 4
• C=CC(=O)N1CC2(CCN(C(=O)N3CCC(n4cc(-c5cc(OC)c6c(C#N)cnn6c5)cn4)CC3)CC2)C1 = 4
• C=CC(=O)N1CCC(F)(C(=O)N2CCC(n3cc(-c4cc(OC)c5c(C#N)cnn5c4)cn3)CC2)C1 (centres unmarked) = 3
• C=CC(=O)NC1C2CC1C2C(=O)N1CCC(n2cc(-c3cc(OC)c4c(C#N)cnn4c3)cn2)CC1 (centres unmarked) = 2
• COc1cc(-c2cnn(C3CCN(C(=O)C4CN(C(=O)/C=C/CN5CC[C@@H](F)C5)C4)CC3)c2)cn2ncc(C#N)c12 = 4
• C=CC(=O)N1CC(C(=O)N2CCC(n3cc(-c4cc(OC5CCC5)c5c(C#N)cnn5c4)cn3)CC2)C1 = 3
• C=CC(=O)N1CC(C(=O)N2CCC(n3cc(-c4cc(OC)c5c(C#N)cnn5c4)c(CC)n3)CC2)C1 = 38
• COc1cc(-c2cnn(C3CCN(C(=O)C4(C)CN(C(=O)/C=C/CN(C)C)C4)CC3)c2C)cn2ncc(C#N)c12 = 30
• COc1cc(-c2cnn(C3CCN(C(=O)C4CN(C(=O)/C=C/CN5CCCCC5)C4)CC3)c2)cn2ncc(C#N)c12 = 3
